- assay.comment: Restrictive medium S. cerevisiae growth inhibition, OD615, pilot screen of yeast lifespan reduction project, restrictive growth control (AID 706);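 also: modified DeaD lifespan yeast strain shifted to restrictive glucose medium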
- measurement.parameters: OD615, 48 h, at 10 µM, active compounds read high
Measured growth inhibition, listed per entry for reference.

| compound | growth inhibition, % |
| --- | --- |
| CCN1CCc2c(sc(NC(=O)c3ccc(S(=O)(=O)N4CCOCC4)cc3)c2C(N)=O)C1 | -1.51 |
| CC(=O)N1CCc2cc(C(=O)CN3CCCCC3)ccc21 | -8.28 |
| CCCCC(CC)C(=O)NCCc1ccc(S(N)(=O)=O)cc1 (centres undefined) | -4.13 |
| O=C(O)COc1ccc(Br)cc1/C=N/O | 3.78 |

---

Known inhibition of a selection of compounds
- assay.comment: inhibitors of the yeast RAM network, pilot screen, dse1pr::URA3 reporter, 5-FOA selection (AID 869);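 also: 0% = DMSO wells with no growth and 100% = 10 µM 1-NA-PP1 with full growth; RAM network block rescues cells from 5-FOA so hits raise OD615 growth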
- measurement.parameters: S. cerevisiae dse1pr::URA3 5-FOA growth, OD615, 2 d; at 10 µM; active compounds read high; strain carries analog-sensitive mutant Cbk1 kinase
Active and inactive are the calls of the source.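 Rule for the calls: active = inhibition over a set limit, the all-compound mean plus 3 SD, in both replicate runs; inconclusive = over that limit in just one replicate run; inactive = at or under that limit in both runs.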
property.label: inhibition

| compound | test.value |
| --- | --- |
| OC(COc1ccccc1Cl)CN1CCN(CC(O)COc2ccccc2Cl)CC1 (centres undefined) | 0.495% (inactive) |
| COc1ccc(NC(=O)C2CCN(S(=O)(=O)c3ccc(C)cc3)CC2)cc1OC | 2.25% (inactive) |
| CCC(C)Sc1nnc(Cc2cc(=O)[nH]c(=O)[nH]2)n1-c1ccc(OC)cc1 (centres undefined) | 0.295% (inactive) |
| CCCn1c(C(O)c2ccc(OCC)cc2)nc2ccccc21 (centres undefined) | 1.36% (inactive) |
| O=C1C2C3C=CC(CO)(O3)C2C(=O)N1c1ccccc1-c1ccccc1 (centres undefined) | 0.13% (inactive) |
| COc1ccc(C2C(C(=O)N3CCOCC3)CCC(=O)N2c2cc(OC)c(OC)c(OC)c2)cc1 (centres undefined) | 0.705% (inactive) |
| CCCCN(C)C(=O)c1c[nH]c2ccc(S(=O)(=O)N3CCOCC3)cc2c1=O | 2.05% (inactive) |
| COc1ccc(CN2CCNC(=O)C2CC(=O)O)c(OC)c1 (centres undefined) | 2.47% (inactive) |
| CN(C(=O)c1cnc2n(c1=O)CCS2)C1CCCCC1 | 1.5% (inactive) |
| COC(=O)C1C2C=CC3(CN(c4ccc(Cl)c(F)c4)C(=O)C13)O2 (centres undefined) | 1.67% (inactive) |
| CS(=O)(=O)N1CCN(c2nc(-c3ccccc3)cs2)CC1 | -0.535% (inactive) |
| COc1ccc2c(c1)CC(C1(O)C(=O)N(C)c3ccccc31)C2=O (centres undefined) | 0.845% (inactive) |
| COc1cccc(C2CC(c3ccccc3OC)n3nc(N)nc3N2)c1 (centres undefined) | 1.06% (inactive) |
| Cc1cc(C)c(S(=O)(=O)NCCCN2CCOCC2)cc1Br | 0.75% (inactive) |
| CCCC(=O)NC(C)c1nc2ccccc2n1C (centres undefined) | 1.45% (inactive) |
| Cc1ccc(-n2c3c(cc(C(=O)NCc4ccco4)c2=O)C(=O)CC(C)(C)C3)cc1 | -0.235% (inactive) |
| c1nnc2c3c4c(sc3ncn12)CCC4 | 1.25% (inactive) |
| CC(=O)c1ccc2c3c(ccc(O)c13)CC2 | 1.52% (inactive) |
| COC(=O)NCC(c1cccnc1)N1CCN(c2ccccc2F)CC1 (centres undefined) | 1.66% (inactive) |

---

Overview of recorded viability for various compounds
- assay.comment: growth suppression of PTEN-deleted HCT116, pilot screen, cell-based, HCT116 clonal line, CellTiter-Glo (AID 824);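 also: 0% = 20 µM Hyamine control and 100% = vehicle cell control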
- measurement.parameters: 60 h, at 10 µM, active compounds read low
Results filed as inconclusive are left out.

| compound | viability (%) |
| --- | --- |
| CCCC(=O)C1=C(SCC)CC(C)(C)C(C(=O)OC)C1=O (configuration not stated) | 91.8 |
| COc1ccc(CCN2CC(C#N)=C3c4cc(OC)c(OC)cc4CCN3C2)cc1OC | 95.4 |
| Cc1ccc(-c2csc(N3CCC(C(N)=O)(N4CCCCC4)CC3)n2)cc1 | 75 |
| CCn1cc(Cl)c(C(=O)Nc2nc3ccccc3n2CCN2CCCCC2)n1 | 92.2 |
| O=C(O)CCCNS(=O)(=O)c1ccc(F)cc1 | 101 |
| CCOc1ccc(-n2c(Cc3cc(=O)[nH]c(=O)[nH]3)nnc2SCC(=O)NC2CCCC2)cc1 | 100 |
| CCN(CC)C(=O)Nc1cnc2ccccc2c1 | 96.4 |
| Cc1onc(-c2ccccc2)c1C(=O)Nc1ccccc1C#N | 91.8 |
| CCOC(=O)c1csc(NC(=O)c2ccccc2)n1 | 99.7 |
| CCCCSc1nnc(C)c(=O)[nH]1 | 102 |
| NC(=O)CSc1nnc(-c2ccncc2)n1-c1ccc(Cl)cc1 | 94.1 |
| CCc1ccc(C2CC(c3ccc(Cl)cc3)n3nc(N)nc3N2)cc1 (configuration not stated) | 90.4 |

---

- assay.comment: inhibitors of the yeast RAM network, pilot screen, dse1pr::URA3 reporter, 5-FOA selection (AID 869);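 also: 0% = DMSO wells with no growth and 100% = 10 µM 1-NA-PP1 with full growth; RAM network block rescues cells from 5-FOA so hits raise OD615 growth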
- measurement.parameters: S. cerevisiae dse1pr::URA3 5-FOA growth, OD615, 2 d; at 10 µM; active compounds read high; strain carries analog-sensitive mutant Cbk1 kinase

| compound | inhibition, % |
| --- | --- |
| CCC(=O)NCc1nc2ccccc2n1Cc1ccccc1F | 0.885 |
| CCOC(=O)c1ccc(Nc2nnc(C(C)(C)C)c(=O)[nH]2)cc1 | 0.35 |
| CCC1CCCCN1C(=O)CSc1nc2c(cnn2-c2ccc(C)cc2)c(=O)[nH]1 (stereo not given) | 1.71 |
| Cc1cc(C(C)(C)C)ccc1OCCN(C)C | 1.58 |
| O=C(NCc1cccnc1)c1ccc(CS(=O)(=O)c2ccc(Br)cc2)o1 | 0.655 |
| Cc1ccc(S(=O)(=O)N2CCCC(C(=O)O)C2)s1 (stereo not given) | 0.59 |
| CNC(=O)c1sc2nc(-c3ccc(OC)cc3)cn2c1C | 2 |
| CCC(C#CCN1CCOCC1)(CC)OCCC#N | 1.35 |
| CCOC(=O)c1[nH]c2ccccc2c1NC(=O)CC(C)(C)C | 1.65 |
| CCC(=O)Nc1nnc(-c2ccc(OC)cc2)o1 | 1.01 |
| CCOC(=O)c1cc(NC(=O)NCc2ccco2)c(C)nc1C | 1.57 |
| CCOC(=O)N1CCN(C(=O)c2oc(=O)c3ccccc3c2-c2ccc(C)cc2)CC1 | 1.23 |
| O=C(Sc1nnc(-c2ccccc2)o1)N1c2ccccc2Sc2ccccc21 | 2.49 |
| COc1ccc(N2CCN(Cc3nc4c(c(=O)[nH]c(=O)n4C)n3Cc3cccc(Cl)c3)CC2)cc1 | 1.39 |
| O=C1c2oc3ccc(Cl)cc3c(=O)c2C(c2ccco2)N1CCN1CCOCC1 (stereo not given) | 0.415 |
| COc1ccc(N)cc1C#N | 1.06 |
| CC(C)N(Cc1nc(-c2ccccc2)no1)C(=O)Cc1ccccc1 | -0.4 |
| CCOC(=O)c1csc(NC(=O)c2ccccc2)n1 | 0.115 |
| COc1ccc(CCNC(=O)CN(c2ccccc2OC)S(C)(=O)=O)cc1OC | 1.04 |
| CC1(C)CC(n2c(NCCO)nc3c(c2=O)C2(CCCC2)Cc2ccccc2-3)CCO1 (stereo not given) | 0.65 |
| Cc1ccccc1N1C(=O)C(Cl)=C(N2CCN(c3ccccc3)CC2)C1=O | 0.515 |
| O=S(=O)(NCCCN1CCN(c2ccccc2F)CC1)c1cccc2cccnc12 | 0.97 |
| CCOC(=O)C1=C2N(C)c3ccccc3N2CCC1=O | 1.9 |
| CCOC(=O)c1ccc(NC(=O)c2nn(C)cc2Br)cc1 | 0.925 |
| CSc1oc(-c2ccc(F)cc2)nc1S(=O)(=O)c1ccccc1 | 0.585 |
| O=C(NC1CCCCC1)N1CCCc2ccccc21 | 0.345 |
| CN1CCN(C(=O)C2CCC(CNS(=O)(=O)c3cccc4cccnc34)CC2)CC1 (stereo not given) | 1.58 |
| Cc1ccc(C2CC(c3ccccc3Cl)n3nc(N)nc3N2)cc1 (stereo not given) | 1.88 |
| Cc1occc1-c1nc(-c2ccccn2)no1 | 0.16 |
| NC(=O)C1CCN(C(=O)c2cc3ccccn3n2)CC1 | 0.505 |
| CC(=O)Cc1nsc(NC(=O)C2Cc3ccccc3C(=O)O2)n1 (stereo not given) | 0.45 |
| CC(=O)Nc1ccc(S(=O)(=O)NC2=NCN(CCOC(=O)c3ccccc3)CN2)cc1 | 1.29 |
| CCOC(=O)C(C)Sc1ncnc2nc[nH]c12 (stereo not given) | 1.11 |
| Cc1ccc(N(CC(=O)NCc2cccnc2)S(C)(=O)=O)cc1C | 0.71 |
| COc1ccc(C2C(C(N)=O)=C(C)Nc3nc(-c4ccccc4Cl)nn32)c(OC)c1 (stereo not given) | 1.21 |
| CCOC(=O)C1CCN(S(=O)(=O)c2ccc(OCC)cc2)CC1 | 0.575 |
| COC(=O)c1cc(Nc2cc(C)nc3ncnn23)cc(C(=O)OC)c1 | 1.31 |
| CCOC(=O)c1cc2c(n(-c3ccc(C)cc3)c1=O)CCCC2=O | 0.59 |
| CC(C)c1cc(N2CCN(C(=O)c3ccco3)CC2)n2c(nc3ccccc32)c1C#N | 2.04 |
| CCOC(=O)c1cc2c(=O)n3ccccc3nc2n(CCOC)c1=NC(=O)C(C)(C)C | -0.545 |
